Each recorded value in this set is attributed to patent US20240368120A1.

assay: Rat pharmacokinetics, oral dosing; type: in vivo, Sprague-Dawley rats; conditions: male, Sprague-Dawley, oral dosing at 3 mg/kg, plasma
readoutLabel: Cmax

Record excerpt, results attached:
[
  {
    "compound": "Cn1c(CN2CCC(c3cccc4c3OC[C@@H](c3ccc(C#N)cc3F)O4)CC2)nc2c(OC(F)F)cc(C(=O)O)cc21 [Compound 300]",
    "assayValue": "2000 to 5000 ng/mL"
  },
  {
    "compound": "CC(C)Oc1cc(C(=O)O)cc2c1nc(CN1CCC(c3cccc(OCc4ccc(C#N)cc4F)n3)CC1)n2Cc1cncs1 [Compound 73]",
    "assayValue": "< 500 ng/mL"
  },
  {
    "compound": "Cn1c(CN2CCC(c3cccc4c3O[C@@H](c3ccc(C#N)cc3F)CO4)CC2)nc2c(OCCF)cc(C(=O)O)cc21 [Compound 294]",
    "assayValue": "< 500 ng/mL"
  },
  {
    "compound": "Cn1c(CN2CCC(c3cccc(OCc4ccc(Cl)cc4F)n3)CC2)nc2c(O)cc(C(=O)O)cc21 [Compound 307]",
    "assayValue": "< 500 ng/mL"
  }
]

Problem: Recorded Cmax of [2H]C([2H])([2H])Oc1cc(C(=O)O)cc2c1nc(CN1CCC(c3cccc(OCc4ccc(Cl)cc4F)n3)CC1)n2C [Compound 207] , please.
Solution: > 5000 ng/mL

Problem: Do the same for C[C@@]1(c2ccc(Cl)cn2)Oc2cccc(C3CCN(Cc4nc5c(OC6CC6)cc(C(=O)O)cc5n4Cc4cncs4)CC3)c2O1 [Compound 7] please
Solution: < 500 ng/mL

Problem: Next compound up: Cn1c(CN2CCC(c3cccc(OCc4ccc(C#N)cc4F)c3)CC2)nc2c(OC(F)F)cc(C(=O)O)cc21 [Compound 111]
Solution: > 5000 ng/mL

###

molecular target: human GLP-1R receptor (Homo sapiens); construct: expressed in transfected cells; experiment: GLP-1R low expression cell assay (cAMP TR-FRET, CHO-K1_hGLP-1Rlow_clone10 cells); assay type: cell-based; settings: maximum activation relative to control GLP-1 peptide agonist
Sequence (P43220 24-463): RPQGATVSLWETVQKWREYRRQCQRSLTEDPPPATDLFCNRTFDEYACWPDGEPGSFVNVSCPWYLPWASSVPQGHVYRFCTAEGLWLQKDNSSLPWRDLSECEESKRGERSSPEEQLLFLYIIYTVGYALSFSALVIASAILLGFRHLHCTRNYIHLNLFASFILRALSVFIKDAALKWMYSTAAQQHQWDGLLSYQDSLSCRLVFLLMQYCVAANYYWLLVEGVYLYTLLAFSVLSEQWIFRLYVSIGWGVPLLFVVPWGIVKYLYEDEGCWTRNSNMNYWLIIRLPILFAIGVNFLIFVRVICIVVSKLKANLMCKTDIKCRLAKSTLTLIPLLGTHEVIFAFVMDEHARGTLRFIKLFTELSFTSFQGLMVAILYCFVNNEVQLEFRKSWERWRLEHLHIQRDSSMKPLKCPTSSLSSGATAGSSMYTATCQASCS
readoutLabel: GLP-1R Low Expression Cell Assay Emax (%)

[
  {
    "compound": "CC(CF)Oc1cc(C(=O)O)cc2c1nc(CN1CCC(c3cccc(OCc4ccc(Cl)cc4F)n3)CC1)n2C (single isomer, unassigned) [Compound 263]",
    "assayValue": "++++ (Emax is >85%)"
  },
  {
    "compound": "Cn1c(CN2CCC(c3cccc(OCc4ccc(Cl)cc4F)n3)CC2)nc2c(OC(F)CF)cc(C(=O)O)cc21 (single isomer, unassigned) [Compound 330]",
    "assayValue": "++++ (Emax is >85%)"
  },
  {
    "compound": "N#Cc1ccc(COc2cccc(C3CCN(Cc4nc5ccc(C(=O)O)c(O)c5n4C[C@@H]4CCO4)CC3)n2)c(F)c1 [Compound 377]",
    "assayValue": "++++ (Emax is >85%)"
  }
]

###

assay: Rat pharmacokinetics, oral dosing; type: in vivo, Sprague-Dawley rats; details: male, Sprague-Dawley, oral dosing at 3 mg/kg, plasma, read-out: Rat T1/2
readoutLabel: half-life

For orientation, consider the following solved cases.
[
  {
    "compound": "COc1cc(C(=O)O)cc2c1nc(CN1CC[C@@H](c3cccc4c3O[C@@](C)(c3ccc(Cl)cn3)O4)[C@@H]3C[C@@H]31)n2C[C@@H]1CCO1 [Compound 89]",
    "readoutLabel": "half-life",
    "assayValue": "90 to 150 min"
  },
  {
    "compound": "COc1c(F)c(C(=O)O)cc2c1nc(CN1CCC(c3cccc(OCc4ccc(C#N)cc4F)n3)CC1)n2C [Compound 301]",
    "readoutLabel": "half-life",
    "assayValue": "90 to 150 min"
  },
  {
    "compound": "COc1cc(C(F)(F)F)ccc1COc1cccc(C2CCN(Cc3nc4c(OC(F)F)cc(C(=O)O)cc4n3C)CC2)n1 [Compound 154]",
    "readoutLabel": "half-life",
    "assayValue": "90 to 150 min"
  },
  {
    "compound": "COc1cc(C(=O)O)cc2c1nc(CN1CCC(c3cccc(OCc4ccc(C#N)cc4F)n3)CC1)n2C[C@@H]1CCO1 [Compound 8]",
    "readoutLabel": "half-life",
    "assayValue": "≥ 150 min"
  },
  {
    "compound": "C[C@]1(c2ccc(Cl)cn2)Oc2cccc(C3CCN(Cc4nc5c(OCCF)cc(C(=O)O)cc5n4C[C@@H]4CCO4)CC3)c2O1 [Compound 81]",
    "readoutLabel": "half-life",
    "assayValue": "≥ 150 min"
  }
]

Problem: Please report the recorded half-life for Cn1c(CN2CCC(c3cccc4c3O[C@@H](c3ccc(Cl)cc3F)CO4)CC2)nc2c(OCCF)cc(C(=O)O)cc21 [Compound 299] .
Solution: 90 to 150 min
